- target desc: TLR9 (Homo sapiens, UniProt Q9NR96)
- Construct: expressed in transfected cells; host or cells: HEK293
- Sequence (Q9NR96 26-1032): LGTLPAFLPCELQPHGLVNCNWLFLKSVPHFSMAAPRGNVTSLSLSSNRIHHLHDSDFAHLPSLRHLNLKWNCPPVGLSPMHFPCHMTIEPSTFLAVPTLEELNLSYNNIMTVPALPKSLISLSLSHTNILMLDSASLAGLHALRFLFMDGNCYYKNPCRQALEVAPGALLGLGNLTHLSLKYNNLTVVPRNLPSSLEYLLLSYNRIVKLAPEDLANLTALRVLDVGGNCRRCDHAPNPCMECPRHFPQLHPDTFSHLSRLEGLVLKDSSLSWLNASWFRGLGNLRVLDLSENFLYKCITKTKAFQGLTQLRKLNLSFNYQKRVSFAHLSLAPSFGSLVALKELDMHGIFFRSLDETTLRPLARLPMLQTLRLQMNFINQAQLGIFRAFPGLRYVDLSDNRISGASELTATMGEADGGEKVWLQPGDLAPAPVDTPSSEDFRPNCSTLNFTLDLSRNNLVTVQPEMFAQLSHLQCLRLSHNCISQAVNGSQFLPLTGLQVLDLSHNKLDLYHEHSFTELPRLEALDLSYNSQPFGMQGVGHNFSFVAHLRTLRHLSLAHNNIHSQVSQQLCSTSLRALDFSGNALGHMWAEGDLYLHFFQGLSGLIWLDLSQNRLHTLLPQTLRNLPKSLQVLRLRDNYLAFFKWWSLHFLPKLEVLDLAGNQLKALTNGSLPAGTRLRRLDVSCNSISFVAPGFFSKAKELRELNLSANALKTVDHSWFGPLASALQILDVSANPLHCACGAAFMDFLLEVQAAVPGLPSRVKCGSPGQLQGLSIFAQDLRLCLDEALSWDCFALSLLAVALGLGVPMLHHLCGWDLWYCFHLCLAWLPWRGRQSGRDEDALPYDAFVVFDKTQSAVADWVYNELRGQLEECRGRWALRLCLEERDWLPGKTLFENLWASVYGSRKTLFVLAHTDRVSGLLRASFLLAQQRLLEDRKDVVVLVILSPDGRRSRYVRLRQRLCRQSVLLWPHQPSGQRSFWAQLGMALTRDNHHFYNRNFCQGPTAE
- protocol notes: TLR9 screening of (+)-morphinan library, SEAP reporter in HEK293 cells expressing TLR9
- Type: cell-based
- condition set: HEK293, read-out: % Inhibition (mean), 100 nM; activator ODN2006
property label: inhibition at 0.1 µM (%)

> print(dat)
                                   compound  experimental.value
1  O=C1CC[C@]2(O)[C@@H]3Cc4ccc(O)c5c4[C@]2(CCN3CC2CC2)[C@@H]1O5                   5
2  COC(=O)CCc1cc(OC)c(O)c2c1CC1C3CCC(=O)C[C@@]23CCN1CC1CC1 (stereo partly shown)                  18
3  C=CCN1CC[C@@]23c4c5ccc(OC)c4O[C@@H]2C(=C)CC[C@@H]3[C@@H]1C5                   8
4  O=C1CC[C@@H]2[C@@H]3Cc4ccc(O)c5c4[C@]2(CCN3)[C@@H]1O5                  13

====

- target desc: TLR9 (Homo sapiens, UniProt Q9NR96)
- Construct: expressed in transfected cells; host or cells: HEK293
- Sequence (Q9NR96 26-1032): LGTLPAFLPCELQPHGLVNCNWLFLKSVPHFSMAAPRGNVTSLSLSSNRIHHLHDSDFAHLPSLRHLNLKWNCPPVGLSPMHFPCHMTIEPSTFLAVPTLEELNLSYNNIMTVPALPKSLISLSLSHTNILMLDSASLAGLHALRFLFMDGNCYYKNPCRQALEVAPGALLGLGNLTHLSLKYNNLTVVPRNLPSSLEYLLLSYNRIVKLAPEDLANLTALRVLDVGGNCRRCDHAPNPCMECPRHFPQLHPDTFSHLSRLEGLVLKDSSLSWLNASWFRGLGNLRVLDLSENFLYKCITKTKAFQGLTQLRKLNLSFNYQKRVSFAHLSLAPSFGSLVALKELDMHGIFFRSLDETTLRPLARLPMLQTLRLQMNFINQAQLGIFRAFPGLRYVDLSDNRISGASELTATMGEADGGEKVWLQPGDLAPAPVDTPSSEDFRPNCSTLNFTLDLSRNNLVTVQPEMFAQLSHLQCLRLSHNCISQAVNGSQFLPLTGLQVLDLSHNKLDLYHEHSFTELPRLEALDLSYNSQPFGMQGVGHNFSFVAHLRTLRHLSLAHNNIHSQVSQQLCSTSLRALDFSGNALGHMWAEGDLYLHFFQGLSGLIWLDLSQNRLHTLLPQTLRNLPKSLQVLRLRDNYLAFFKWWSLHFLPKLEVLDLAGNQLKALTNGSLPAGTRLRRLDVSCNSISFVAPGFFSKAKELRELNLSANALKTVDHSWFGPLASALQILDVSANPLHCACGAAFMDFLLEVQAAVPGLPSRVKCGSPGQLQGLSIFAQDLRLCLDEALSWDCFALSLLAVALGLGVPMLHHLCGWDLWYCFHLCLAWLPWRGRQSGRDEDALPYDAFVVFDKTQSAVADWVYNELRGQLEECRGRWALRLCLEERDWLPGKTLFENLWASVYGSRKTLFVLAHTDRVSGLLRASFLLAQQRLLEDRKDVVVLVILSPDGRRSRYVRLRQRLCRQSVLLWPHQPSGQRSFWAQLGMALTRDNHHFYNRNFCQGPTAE
- protocol notes: TLR9 screening of (+)-morphinan library, SEAP reporter in HEK293 cells expressing TLR9
- Assay type: cell-based
- condition set: 100 nM; activator ODN2006; control (no activator) 0.14, activator 1.42 OD
- Experimental: The secreted alkaline phosphatase reporter is under the control of a promoter inducible by the transcription factor NF-κB. […] In a 96-well plate (200 μL total volume) containing 50,000 cells/well, 20 μL of each sample compound was added to wells, in triplicate, followed by a 30 minute incubation at 37° C. and 5% CO2. […] After a 16-20 hr incubation period, the OD at 650 nm was read on a Beckman Coulter AD 340C Absorbance Detector. […]
OD 650 nm (mean ± sd) by entry:
property label: OD 650 nm (mean ± sd) (OD)

> print(dat)
                                   molecule                          target.desc  experimental.value
1  CO[C@]12CCC(=O)[C@H]3Oc4c(O)ccc5c4[C@]31CCN(CC1CC1)[C@H]2C5  TLR9 (Homo sapiens, UniProt Q9NR96)                1.07
2  COC1=C[C@]2(O)[C@@H]3Cc4ccc(OC)c(O)c4[C@]2(CCN3C)CC1=O  TLR9 (Homo sapiens, UniProt Q9NR96)                1.25
3  COc1cc(-c2ccoc2)c2c(c1O)[C@@]13CCN(CC4CC4)C(C2)C1CCC(=O)C3 (stereo partly shown)  TLR9 (Homo sapiens, UniProt Q9NR96)                1.34
4  COc1ccc2c3c1O[C@@H]1C(O)CC[C@@H]4[C@H](C2)N(CC2CCC2)CC[C@@]314 (stereo partly shown)  TLR9 (Homo sapiens, UniProt Q9NR96)                1.32
